test: Solubility in pharmaceutically acceptable excipients; type: physicochemical; details: organic solvent or mixture; Labrasol ®/Transcutol ® 60/40
result-type: solubility (mg/mL)
State the answer as a number, implicitly in mg/mL.

Asked: State its solubility for this molecule: `O=C1N(Cc2ccc(C(F)(F)F)o2)c2ccccc2[C@]12COc1cc3c(cc12)OCO3`
Given back: 186
